Recorded values, source ChEMBL document CHEMBL1157118.

molecular target: Nucleic Acid; experiment: Binding affinity to 3'-dangling end of RNA1 by fluorescence spectroscopy analysis in absence of Triton X-100; format: nucleic-acid assay
readout: Kd

Consider the compound "OC(CNc1ccnc2cc(Cl)ccc12)CNc1ccnc2cc(Cl)ccc12" and give its measured Kd.
8.2 µM

====

target: Nucleic Acid; assay: Binding affinity to 3'-dangling end of RNA1 ligand binding site 2 by isothermal titration calorimetry; assay type: nucleic-acid assay
readout: Kd (µM)
Unit µM implied. Number only.

Test system Nucleic Acid; read-out Kd; what value for "OC(CNc1ccnc2cc(Cl)ccc12)CNc1ccnc2cc(Cl)ccc12" ?
9.2

====

target: Nucleic Acid; assay: Binding affinity to 3'-dangling end of RNA1 ligand binding site 3 by isothermal titration calorimetry; format: nucleic-acid assay
readout: pKd
Reminder that pKd is minus the log10 of a molar concentration.

API: value(readout=pKd, system=Nucleic Acid) for record "OC(CNc1ccnc2cc(Cl)ccc12)CNc1ccnc2cc(Cl)ccc12"
5.09
